target: CMP-Neu5Ac synthetase (SiaB) (Haemophilus influenzae); construct: gene neuA; full-length siaB in pET51-Ek/LIC, N-terminal 6xHis tag (so in the source) kept; expressed in E. coli, Talon purified; 24,800 Da; amine-coupled to CM5 chip; assay: surface plasmon resonance, immobilised SiaB; assay type: binding; settings: 20 mM MgCl2, 0.2 M MOPS, pH 8.1, 37°C; enzyme amine-coupled to CM5 chip
In this section we review reported Kd values for a set of compounds.
Give a bare numeral; the unit nM is implied.

{"Compound": "O=C(CO)N[C@H]1[C@H]([C@H](O)[C@H](O)CO)OC(O)(C(=O)O)C[C@@H]1O (some centres unmarked)", "Tested Target": "CMP-Neu5Ac synthetase (SiaB) (Haemophilus influenzae)", "Units Label": "nM", "Recorded Number": 1000}

Moving on to the next compound.
input: What value of Kd has been recorded for this entry: CC(=O)N[C@H]1[C@H]([C@H](O)[C@H](O)CO)OC(O)(C(=O)O)C[C@@H]1O (some centres unmarked)
output: 1.2
